Values from paper PMC9352680

# experimentalSystem: T1, PUF4 RNA-binding domain (Saccharomyces cerevisiae, UniProt P25339 537-888)
# T1 sequence: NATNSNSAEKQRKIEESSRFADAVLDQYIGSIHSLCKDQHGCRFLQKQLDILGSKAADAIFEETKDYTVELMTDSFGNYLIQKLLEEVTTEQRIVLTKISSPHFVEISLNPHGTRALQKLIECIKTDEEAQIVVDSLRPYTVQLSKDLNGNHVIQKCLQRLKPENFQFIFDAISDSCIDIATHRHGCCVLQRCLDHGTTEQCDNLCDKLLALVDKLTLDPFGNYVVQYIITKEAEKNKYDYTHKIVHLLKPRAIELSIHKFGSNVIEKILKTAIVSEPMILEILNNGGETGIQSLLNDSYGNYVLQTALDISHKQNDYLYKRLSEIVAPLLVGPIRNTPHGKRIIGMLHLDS
# assayOverview: Mg; RNA-MaP; 20 mM Na-HEPES pH 7.4, 30 mM KOAc, 0.75 mM MgCl2, 0.1% Tween-20, 5% glycerol, 0.1 mg/mL BSA, 2 mM DTT; 25 C; 0.0125-409.6 nM protein
# conditionLabel: tags: N-His6-TEV cleaved; C-SNAP kept, Cy3B-labelled; label: tethered on chip by stalled RNA polymerase
pKd: −log10 of the molar value.
Hi, to clarify the labels: Fulfilled covers pKd from 8 upward, Not fulfilled covers anything below 8.

Sample answers from the record:
[[record]]
binder = "UCUCUUCUUGUAUAUUAAUUCUCUU (ssRNA) [Id_ii_S1_P4E.2_K4.1_C4.2_H4.1_A4.1_F4.1_T4.2_[G10A]]"
class = "Fulfilled"

[[record]]
binder = "UCUCUUUGUAUACCUCUUUAUCUCUU (ssRNA) [Ie_S1_P4E.1_K4.1_C4.1_H4.1_A4.1_[+6CCTCT]_F4.1_T4.1]"
class = "Not fulfilled"


Textbook exercise: given the entry Ib_S2_P5E.1_K5.1_C5.1_H5.1_[A4T]_A5.1_F5.1_[T9C]_T5.1 (ssRNA) RNA: UUUGAUUAAUAUGAUAUCGUUCUUUCUUGUUUUAUCAUUCUUUCUCGAUAUCAUAUUAAUCUUU , state whether its pKd is greater than or equal to 8.
Not fulfilled

Is pKd for Id_ii_S2_P4E.4_K4.3_C4.2_[T-1G]_H4.3_A4.1_F4.1_T4.2_[G10A]_[T11A] (ssRNA) RNA: UUUGAUUAAUAUGAUAUCGUUCUUUCUCGACACUAUUAAAUUCUUUCUCGAUAUCAUAUUAAUCUUU at or above 8?
Not fulfilled

I'd appreciate it if you could say whether UCUCUUUUUGUAUAUAGCUCUCUU (ssRNA) [Id_ii_S1_P3E.2_K3.1_C3.2_[C-2T]_H3.1_A3.1_F3.1_T3.2_[T9G]_[A10C]] has pKd at least equal to 8.
Fulfilled
